Test system: DU-145 prostate
Assay: NCI-60 one-dose screen, 48 h (100 = growth as untreated, 0 = no growth, -100 = all killed)
Settings: 10 µM unless noted
About 83,000 compounds went through this panel and 20% of them were active in at least one assay; those are over-represented in the sample as a whole.
measurement-kind: growth (%)
Form entry: value (%) — number only.

# annotated cases, reported growth shown
CCN(C(=O)CCl)C(C)(C)C(SSSC(c1ccc(Cl)cc1)C(C)(C)N(CC)C(=O)CCl)c1ccc(Cl)cc1 (stereo not drawn): 85.5
O=C(CC(=O)c1ccccc1F)Nc1ccc([N+](=O)[O-])cc1: 119

Here's the next entry for you.
Summary: `COc1ccc(/C=C/C(=O)CCC(=O)O)cc1OC` , DU-145 prostate, growth = 111

====

Tested on: K-562 leukemia
Test: NCI-60 one-dose screen, 48 h (100 = growth as untreated, 0 = no growth, -100 = all killed)
Conditions: 10 µM unless noted
This is part of a sample that, as a whole, favours compounds with a hit. Of some 83,000 tested, about 20% had one in any assay.
Records here are stratified by growth; strata: LOW (below 50%), MEDIUM (50% to below 70%), HIGH (70% or more)

Here are 8 compounds together with their reported answers.
COc1cc(NCC(O)CN(CC(C)C)CC(C)C)c2ncccc2c1 (stereo not given): MEDIUM
C=CC(=O)N1CN(C(=O)C=C)CN(C(=O)C=C)C1: LOW
c1ccc(-c2nnn(-c3ccccc3)n2)cc1: HIGH
COc1ccc(NC(=O)Cn2c(=O)sc3c(-c4ccc(Cl)cc4)cc(-c4ccc(Cl)cc4)nc32)cc1: HIGH
CCC(=O)NC1=C(Cl)C(=O)C(NC(=O)CC)=C(Cl)C1=O: LOW
O=C(Nc1ccc(Cl)cc1)c1cc(-c2ccc(Cl)cc2)c2sc(=O)[nH]c2n1: LOW
O=C1Nc2ccccc2/C1=C\c1nc(C2CCN(S(=O)(=O)c3ccc(F)cc3)CC2)n2ccccc12: MEDIUM
c1csc(-c2cnc3nonc3n2)c1: MEDIUM

# next compound below
Prompt: Hello team, could you let me know which band the following compound falls into: `CC(=O)Oc1c(Cl)c(Cl)c(Cl)c(Cl)c1Cl`
Response: HIGH

====

Test system: SK-MEL-5 melanoma
Test: NCI-60 one-dose screen, 48 h
Details: 10 µM unless noted
Experimental: Growth inhibition of the SK-MEL-5 human tumor cell line is measured as a screen for anti-cancer activity. Cells are grown in 96 well plates and exposed to the test compound for 48 hours. Compounds are tested at a single concentration, which is 10^-5 M for most compounds. The reported endpoint is percent growth (GI% or GIPRCNT), where numbers from 0 - 100% represent growth inhibition, and numbers from -100% - 0 represent cell death. For example, a value of 40 represents 60% growth inhibition. […]
This is part of a sample that, as a whole, favours compounds with a hit. Of some 83,000 tested, about 20% had one in any assay. The source made the active and inactive calls. The calls were made as follows: active = growth percent below 10; inactive = the rest.
Returns: one label drawn from yes = active, no = inactive

Answered cases to consult:
O=C(NO)c1ccc(CNc2cccc3nc(C4CC4)n(-c4ccccc4)c(=O)c23)cc1: yes
c1cc2c(cc1-c1cnc3nonc3n1)OCO2: no
COc1ccc(-c2cnc(-c3ccncc3-c3cccc(OC)c3)o2)cc1: yes
O=C(NCCN1CCCCC1)n1cc(-c2ccncc2)c(-c2ccc(Cl)c(O)c2)n1: no
Brc1ccsc1Br: no
CCn1c(Cc2ccccc2Nc2c(Cl)cccc2Cl)nnc1SCC(=O)Nc1cccc(OC)c1: no
COc1cc(C2CC(c3ccc(Cl)cc3)=NN2C=O)ccc1Oc1ccnc2cc(Cl)ccc12 (configuration not stated): no
CCN(CC)c1ccc(/C=N/NC(=O)c2ccc(S(C)(=O)=O)cc2)c(O)c1: yes

API: the following record is the query input.
Prompt: So what was the verdict on `COc1ccc2c(c1)C1=NN(C(=O)CO)[C@H](c3ccc(OC(F)(F)F)cc3)[C@@H]1CC2` in this test?
Response: no

====

Tested on: NCI-H460 lung
Assay: NCI-60 one-dose screen, 48 h
Conditions: 10 µM unless noted
This is part of a sample that, as a whole, favours compounds with a hit. Of some 83,000 tested, about 20% had one in any assay. The source made the active and inactive calls. The calls were made as follows: active = growth percent below 10; inactive = the rest.
Response enum: active, inactive

Look over these answered cases.
CC(C)c1cccc(C#N)c1: inactive
CC(C)(C)OC[C@@H]1N=C(c2ccc(Br)cc2)Nc2nc3ccccn3c2C1=O: inactive
CCCCCCCCCCCCCCCCCC(=O)OCCCCCCCCCCCCC: inactive

Prompt: I would be grateful if you could indicate the recorded call for C=CCOC(=O)C1=C(C)NC2=C(C(=O)CCC2)C1c1ccc(F)cc1 (stereo not given) .
Response: inactive

Prompt: Look up the recorded call for `O=C(O)c1ccccc1Oc1cc(-c2ccco2)nc(OCCN2CCOCC2)n1` in this test.
Response: inactive

Prompt: # outcome recorded in this test, key = `CCN(CC)CCCCCCCCNc1c2ccc(Cl)cc2nc2ccc(OC)cc12`
Response: active

Prompt: // return assay outcome for COc1cc(CN(CCC(O)N2CCCC2=O)Cc2ccc3c(c2)OCO3)cc(OC)c1OC (stereo not given)
Response: inactive

Prompt: Which outcome was assigned to `CCOC(=O)c1cc(N)nc2ccccc12` in this test?
Response: inactive

====

Here, each record is paired with measured growth data.
System: LOX IMVI melanoma
Assay: NCI-60 one-dose screen, 48 h (100 = growth as untreated, 0 = no growth, -100 = all killed)
Details: 10 µM unless noted
This is part of a sample that, as a whole, favours compounds with a hit. Of some 83,000 tested, about 20% had one in any assay. Calls of active or inactive are those of the source. How the source made its calls: active means growth percent below 10; inactive means the rest.

Sample answers from the record:
CCN(CC)CCCC(C)Nc1ccnc2ccc(Oc3ccccc3)cc12 (stereo not given): 36.4% (inactive)
CN(C)c1ccc(/C=C\c2cccc[n+]2C)cc1: 50% (inactive)
O=C(c1ccccc1)C(CCc1ccccn1)CCc1ccccn1: 95.8% (inactive)
CC[C@]1(O)C[C@H]2CN(CCc3c([nH]c4ccccc34)C(C(=O)OC)(c3cc4c(cc3OC)N(C)[C@H]3[C@@](O)(C(=O)OC)[C@H](OC(C)=O)[C@]5(CC)[C@@H]6C[C@@H]6CN6CC[C@]43[C@@H]65)C2)C1 (stereo not given in full): 5.88% (active)

Let us move to another entry and its growth.
Case CNC(=O)OC1C(O[C@H]2C[C@H]3[C@@H]4CC=C5C[C@@H](O)CC[C@]5(C)[C@H]4CC[C@]3(C)[C@H]2[C@H](C)C(=O)CCC(C)C)OCC(O)C1OC1OCC(O)C(O)C1OC(=O)c1ccc(OC)cc1 (stereo not given in full) , LOX IMVI melanoma, growth recorded as -31.3% (active)

====

Below, each entry is listed with its recorded growth.
Test system: OVCAR-3 ovarian
Assay: NCI-60 one-dose screen, 48 h (100 = growth as untreated, 0 = no growth, -100 = all killed)
Conditions: 10 µM unless noted
About 83,000 compounds went through this panel and 20% of them were active in at least one assay; those are over-represented in the sample as a whole.
Use % as the unit, but write only the number.

N#CCCn1cnc2c(N)ncnc21: 109
CCCC(CCC)(C(N)=O)C(=O)O: 110
CNC1=C([N+](=O)[O-])C(c2ccccc2O)C(C#N)=C(c2cccs2)O1 (centres undefined): 92
CCOC(=O)c1cc(N)nc2ccccc12: 109
CC(=O)Oc1c(Cl)c(Cl)c(Cl)c(Cl)c1Cl: 107
O=C(c1ccccc1)C1OC1C(=O)c1ccccc1 (centres undefined): 35.2
COc1ccc(C(=O)OC2C(OC3C(O)COC(O[C@H]4C[C@H]5[C@@H]6CC=C7C[C@@H](O)CC[C@]7(C)[C@H]6CC[C@]5(C)[C@H]4[C@H](C)C(=O)CCC(C)C)C3OC(C)=O)OCC(O)C2O)cc1 (some centres undefined): 53.4
COc1cccc(-c2cc(-c3cccs3)c(C#N)c(=O)[nH]2)c1: 109
CC[C@H](C)[C@H](N)C(=O)O: 111
CC(C)(C)c1ccc(C(=O)Nc2sc3cc(O)ccc3c2C(N)=O)cc1: 90.8

Record summary for `O=C1Nc2ccc(Cl)cc2/C1=C\c1c(-c2ccc(F)cc2)nc2ccccn12` : reported growth = -70.4

The molecule `COc1ccccc1/C=N\Nc1ccc([N+](=O)[O-])cn1` showed growth equal to 117

`O=C(CC(=O)C(F)(F)C(F)(F)C(F)(F)F)c1cc2ccccc2o1` yielded growth of 106

Summary for this molecule, COc1cc(NCC(O)CN(CC(C)C)CC(C)C)c2ncccc2c1 (centres undefined) : growth is 47.4

====

Tested on: SN12C renal
Experiment: NCI-60 one-dose screen, 48 h (100 = growth as untreated, 0 = no growth, -100 = all killed)
Conditions: 10 µM unless noted
This is part of a sample that, as a whole, favours compounds with a hit. Of some 83,000 tested, about 20% had one in any assay.
growth of 80% or higher: yes (1). Under 80%: no (0).

CCOC(=O)Nc1ccc2nc(Sc3ccc(Cl)cc3)sc2c1: no (0)
Cc1ccc2c(C)c3c(ccc4ccccc43)c[n+]2c1: no (0)
CCCCc1nc(Cl)c(C2CC(c3ccc(S(N)(=O)=O)cc3)=NN2c2ccc(C#N)cc2)[nH]1 (stereo not given): yes (1)
O=C(/C=C/c1cn(-c2ccccc2)nc1-c1ccccc1)OCc1cn(-c2cccc([N+](=O)[O-])c2)nn1: yes (1)
COc1cc(C2CC(c3ccccc3)=NN2C=O)ccc1Oc1nc2c(c(=O)n(C)c(=O)n2C)n1C (stereo not given): no (0)
Cc1csc(N/N=C/c2ccncc2)n1: yes (1)
CS(=O)(=O)c1ccc(C(=O)N/N=C/c2cccc3ccccc23)cc1: yes (1)
COc1ccc(-c2cnnn2-c2nonc2-n2cccc2)cc1: no (0)

Prompt: hey, is growth for this one >= 80%? `CCCCn1cnc2c(SCc3ccc([N+](=O)[O-])cc3)nc(N)nc21`
Response: yes (1)

Prompt: Item CCOC(=O)C1OC2(CCCC2)OC1C(=O)OCC (stereo not given) with growth of 80% or above?
Response: yes (1)

Prompt: Form field: growth at least 80%? Entry: `CCCCCCCC/C=C/CCCCCCCC1=NC(C)(C)CN1c1ccccc1`
Response: yes (1)

Prompt: Could you verify whether the entry COc1cc(C2CC(c3ccc(Cl)cc3)=NN2C=O)ccc1Oc1ccnc2cc(Cl)ccc12 (stereo not given) shows growth of no less than 80%?
Response: no (0)

Prompt: Threshold query (growth >= 80%) on `CCOC(=O)Nc1ccc2nc(N3CCCCCC3)sc2c1`
Response: no (0)

Prompt: Given `N=C(N)c1ccc(-c2ccc(-c3ccco3)o2)cc1F` , state whether its growth is at least 80%.
Response: no (0)
